Taken from ChEMBL document CHEMBL3621096.

molecular target: A disintegrin and metalloproteinase with thrombospondin motifs 4 (Homo sapiens, UniProt O75173); assay: Inhibition of recombinant human ADAMTS4 (213 to 575 amino acid residues) using WAAG-3R as substrate preincubated for 15 mins followed by substrate addition measured every 30 secs for 1 hr
pIC50: −log10 of the molar value.
measurement name: pIC50

Please review the entries below; each comes with its answer.
CCN(C(=O)c1ccc(CNc2ncnc(N3Cc4ccccc4C3)n2)cc1)c1cccc(C)c1 ... 5.25
CCN(C(=O)c1ccc(CNc2nc(NC(C)C)nc(N3CCc4cc(OC)c(OC)cc4C3)n2)cc1)c1cccc(C)c1 ... 7.22

a: CCN(C(=O)c1ccc(CNc2nc(NC)nc(N3CCc4cc(OC)c(OC)cc4C3)n2)cc1)c1cccc(C)c1
b: COc1cc2c(cc1OC)CN(c1nc(NCCN3CCN(C)CC3)nc(NCc3ccc(C(=O)Nc4cccc(C)c4)cc3)n1)CC2
# input Kindly identify the item with the lower pIC50 figure among these two: a and b Lab log: write the label of the selected item as the result.
# output b
(b: 6.29, a: 7.52)

* * *

biological target: A disintegrin and metalloproteinase with thrombospondin motifs 13 (Homo sapiens, UniProt Q76LX8); assay: Inhibition of human recombinant ADAMTS13 using FRETSVWF73 as substrate by fluorescence assay
Sequence (Q76LX8 whole entry): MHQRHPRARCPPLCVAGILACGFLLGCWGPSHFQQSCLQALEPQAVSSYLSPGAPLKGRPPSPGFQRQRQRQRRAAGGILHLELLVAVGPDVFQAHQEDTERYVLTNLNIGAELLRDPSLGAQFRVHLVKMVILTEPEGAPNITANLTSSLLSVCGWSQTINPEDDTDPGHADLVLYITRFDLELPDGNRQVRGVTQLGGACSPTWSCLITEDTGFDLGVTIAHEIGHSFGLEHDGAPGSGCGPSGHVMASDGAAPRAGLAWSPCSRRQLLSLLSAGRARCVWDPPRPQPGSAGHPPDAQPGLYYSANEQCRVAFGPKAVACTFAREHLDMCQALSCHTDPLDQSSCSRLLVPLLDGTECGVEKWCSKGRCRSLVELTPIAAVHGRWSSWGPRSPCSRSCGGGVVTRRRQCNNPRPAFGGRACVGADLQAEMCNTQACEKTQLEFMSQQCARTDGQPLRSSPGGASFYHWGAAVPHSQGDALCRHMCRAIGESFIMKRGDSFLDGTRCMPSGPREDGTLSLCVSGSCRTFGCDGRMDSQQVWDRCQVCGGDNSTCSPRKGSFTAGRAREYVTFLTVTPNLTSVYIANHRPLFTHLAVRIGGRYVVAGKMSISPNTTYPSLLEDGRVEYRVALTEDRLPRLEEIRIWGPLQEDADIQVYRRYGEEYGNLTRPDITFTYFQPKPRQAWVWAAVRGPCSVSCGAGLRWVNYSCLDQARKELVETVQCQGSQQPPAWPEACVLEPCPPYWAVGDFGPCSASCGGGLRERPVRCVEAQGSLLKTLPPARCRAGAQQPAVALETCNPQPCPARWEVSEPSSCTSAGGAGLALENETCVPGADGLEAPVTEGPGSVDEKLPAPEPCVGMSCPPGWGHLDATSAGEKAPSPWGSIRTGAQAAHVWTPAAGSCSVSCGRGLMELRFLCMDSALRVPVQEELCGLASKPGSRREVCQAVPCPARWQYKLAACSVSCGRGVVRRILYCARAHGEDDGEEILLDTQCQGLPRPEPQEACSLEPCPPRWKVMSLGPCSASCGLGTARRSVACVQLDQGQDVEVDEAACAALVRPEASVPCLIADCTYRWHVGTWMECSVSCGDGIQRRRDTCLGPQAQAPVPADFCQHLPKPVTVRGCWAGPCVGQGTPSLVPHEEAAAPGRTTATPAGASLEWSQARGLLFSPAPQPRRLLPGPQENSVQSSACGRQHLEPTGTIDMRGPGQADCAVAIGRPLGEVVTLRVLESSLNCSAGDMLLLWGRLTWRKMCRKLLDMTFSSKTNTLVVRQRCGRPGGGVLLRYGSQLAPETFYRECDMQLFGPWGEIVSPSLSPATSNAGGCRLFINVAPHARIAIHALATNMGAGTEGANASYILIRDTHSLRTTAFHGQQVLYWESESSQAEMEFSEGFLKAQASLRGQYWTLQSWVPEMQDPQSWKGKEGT
measurement name: IC50

# input Using the record for CCN(C(=O)c1ccc(CNc2nc(NCCN3CCN(C)CC3)nc(N3CCc4cc(OC)c(OC)cc4C3)n2)cc1)c1cccc(C)c1 , report its IC50.
# output > 10 µM

* * *

molecular target: A disintegrin and metalloproteinase with thrombospondin motifs 4 (Homo sapiens, UniProt O75173); assay: Inhibition of recombinant human ADAMTS4 (213 to 575 amino acid residues) using WAAG-3R as substrate preincubated for 15 mins followed by substrate addition measured every 30 secs for 1 hr
measurement name: IC50 (nM)

1: CCN(C(=O)c1ccc(CNc2nc(NCCc3ccco3)nc(N3CCc4cc(OC)c(OC)cc4C3)n2)cc1)c1cccc(C)c1
2: CCN(C(=O)c1ccc(CNc2nc(NC3CCCCC3)nc(N3CCc4cc(OC)c(OC)cc4C3)n2)cc1)c1cccc(C)c1
3: CNC(=O)c1ccc(CNc2nc(NCCN3CCN(C)CC3)nc(N3CCc4cc(OC)c(OC)cc4C3)n2)cc1
4: CCN(C(=O)c1ccc(CNc2nc(NCC(=O)O)nc(N3CCc4cc(OC)c(OC)cc4C3)n2)cc1)c1cccc(C)c1
# input Reorder the list above by recorded IC50 in ascending order. Quick reminder: the answer is the labels in the order asked.
# output 4, 1, 2, 3

* * *

Target: A disintegrin and metalloproteinase with thrombospondin motifs 4 (Homo sapiens, UniProt O75173)
Sequence (O75173 whole entry): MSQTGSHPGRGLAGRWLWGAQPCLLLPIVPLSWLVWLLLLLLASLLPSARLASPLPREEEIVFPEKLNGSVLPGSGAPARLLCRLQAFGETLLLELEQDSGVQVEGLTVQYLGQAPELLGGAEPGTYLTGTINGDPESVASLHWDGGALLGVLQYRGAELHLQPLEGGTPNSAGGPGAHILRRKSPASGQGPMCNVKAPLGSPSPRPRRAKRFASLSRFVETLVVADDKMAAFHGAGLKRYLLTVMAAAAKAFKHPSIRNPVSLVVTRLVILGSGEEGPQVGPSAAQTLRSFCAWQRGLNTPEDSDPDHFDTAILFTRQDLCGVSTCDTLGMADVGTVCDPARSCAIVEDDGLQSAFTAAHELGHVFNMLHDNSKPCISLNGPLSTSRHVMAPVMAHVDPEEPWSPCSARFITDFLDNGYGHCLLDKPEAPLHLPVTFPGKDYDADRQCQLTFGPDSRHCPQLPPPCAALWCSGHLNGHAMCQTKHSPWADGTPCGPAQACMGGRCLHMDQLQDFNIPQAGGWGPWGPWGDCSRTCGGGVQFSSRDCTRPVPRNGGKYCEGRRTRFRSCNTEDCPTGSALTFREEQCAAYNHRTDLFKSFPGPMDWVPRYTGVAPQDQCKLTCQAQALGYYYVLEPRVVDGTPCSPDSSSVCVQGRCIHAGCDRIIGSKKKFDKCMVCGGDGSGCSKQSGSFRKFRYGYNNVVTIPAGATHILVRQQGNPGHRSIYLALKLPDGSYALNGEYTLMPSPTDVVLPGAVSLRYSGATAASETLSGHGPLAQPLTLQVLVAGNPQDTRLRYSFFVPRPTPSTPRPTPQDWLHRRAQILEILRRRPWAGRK
Test: Inhibition of recombinant human ADAMTS4 (213 to 575 amino acid residues) using WAAG-3R as substrate preincubated for 15 mins followed by substrate addition measured every 30 secs for 1 hr
pIC50: −log10 of the molar value.
measurement name: pIC50

CCN(C(=O)c1ccc(CNc2nc(O)nc(N3CCc4cc(OC)c(OC)cc4C3)n2)cc1)c1cccc(C)c1 ... 7.66

P: CCN(C(=O)c1ccc(CNc2ncnc(N3CCc4cc(OC)c(OC)cc4C3)n2)cc1)c1cccc(C)c1
Q: CCN(C(=O)c1ccc(CNc2nc(NCCN3CCN(C)CC3)nc(N3CCc4cc(OC)c(OC)cc4C3)n2)cc1)c1cccc(C)c1
R: CCN(C(=O)c1ccc(CNc2ncnc(N3CCc4cc(F)ccc4C3)n2)cc1)c1cccc(C)c1
# input // smallest pIC50 at index 0, largest at the end List labels; respect the requested ordering.
# output R, P, Q
